# Target Desc: T1, CD27 expressed on the cell surface (HT1080_CD27 cells) (human, UniProt P26842 20-260); further: test concentration or dose not given here
# T1 sequence (looked up): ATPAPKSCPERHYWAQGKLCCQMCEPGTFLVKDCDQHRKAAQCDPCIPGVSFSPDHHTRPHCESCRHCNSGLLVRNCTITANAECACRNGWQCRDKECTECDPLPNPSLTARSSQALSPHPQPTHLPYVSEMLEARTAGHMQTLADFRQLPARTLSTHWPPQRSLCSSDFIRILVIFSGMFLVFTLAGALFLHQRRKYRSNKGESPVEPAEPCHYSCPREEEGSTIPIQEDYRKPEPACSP
# Assay: cell-based or functional assay
Listed here: items and their measured IL-8 [abs. corr.].
Measure Name: IL-8 [abs. corr.]

P018.S.06.A.H04 (antibody, V domains shown, V regions on human Ig constant parts; also called AB27_111) VH: QEKLEESGGGLVKPGGSLTLPCTASGFTLSSRYYMCWVRQAPGKGLEWIGCIYAGSLRTWYASWAKGRFTISKTSSTTVTLQMTSLTAADTATYFCARSPGVAASYPELWGPGTLVTVSS VL: AQVLTQTPSSVAAAVGGTVSISCQSSQSVGNADNLAWYQQKPGQPPNLLIYYAASLASGVPSRFKGSGSGTQFTLTISDLESDDAATYYCGGGYYNSTDTFYTFGGGTEVVVK; 0.173 abs. corr.
P018.S.01.A.A04 (antibody, V domains shown, V regions on human Ig constant parts; also called AB27_1) VH: QSVEESGGRLVTPGTPLTLTCTVSGFSLSRYWVSWVRQAPGKGLEAIGVIDNGDTAYYASWAKGRFTISKTSSITVDLKMTSLTTEDTATYFCTREGADHSGQDLWGQGTLVTVSS VL: AAVLTQTPSPVSAAVGGTVTINCQASQSVISNNDLSWYQQKPGQPPKLLIYRASNLASGVPSRFEGSGSGTQFTLTISDLESEDAATYYCQGGYAGIVDRRPFGGGTEVVVK; 0.236 abs. corr.
P018.S.03.A.C04 (antibody, V domains shown, V regions on human Ig constant parts; also called AB27_45) VH: QSVEESGGRLVTPGTPLTLTCTVSGVDLSRYAMSWVRQAPGEGLEWIGTIWYSGTTYYASWAKGRFTISKTSSTTVDLKMTSLTAADTATYFCARDPLYVGGNSGSDLWGPGTLVTVSS VL: DVVMTQTPASVSAAVGGTVTINCQASQSIGSSLAWYQQKPGQRPKLLIYYASTLASGVPSRFSGSGSGTEFTLTISDLESADAATYYCQSNYGAASSSYGAFGGGTEVVVK; 0.394 abs. corr.
